Source of measurements: ChEMBL document CHEMBL1142164

I'd be grateful if you could share measured selectivity ratio for these entries.
# protocol-notes: Cytotoxicity index, IC50 for J774.1 macrophages over IC50 for Leishmania major promastigotes
# condition-description: mouse, J774.1 macrophages; read-out: Ratio IC50
One number for each entry.

Some entries whose results are on file:
{"compound": "COc1cc(OC)c2c(C)[n+](-c3ccccc3)c(C)cc2c1.[O-][Cl+3]([O-])([O-])[O-]", "assay-result": 1.47}
{"compound": "COc1cc2c(c(OC)c1)C(C)=[N+](c1ccc3cc(C)cc(OC)c3c1O)[C@@H](C)C2 [ANCISTROCLADINIUM B]", "assay-result": 9.04}

Okay, here is my list. What is selectivity ratio for each of these?
1. COc1cc(OC)c2c(C)[n+](-c3cccc4ccccc34)c(C)cc2c1.[O-][Cl+3]([O-])([O-])[O-]
2. COc1cc2c(c(OC)c1)C(C)=[N+](c1ccc(OC)c3c(OC)cc(C)cc13)[C@@H](C)C2 [ANCISANCISTROCLADINIUM A]

a:
[3.48, 6.48]
